Origin of the recorded values: PubChem BioAssay

Target: Pro-neuregulin-1, membrane-bound isoform (Homo sapiens)
Assay: NRG1 binders on small-molecule microarrays, primary screen, psychiatric disease protein project, biochemical, small-molecule microarray, fluorescence 635/667 (AID 1075);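 note: score combines 667 nm spot fluorescence with signal to noise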
Details: NRG1 binding, 635 nm fluorescence, higher = more signal
measurement label: composite z-score

>  <compound>
COc1ccc(C(=O)Nc2ccc(CN3C(=O)[C@@]4(O[C@@H](CCn5cc([C@H](O)c6ccccc6)nn5)[C@H]([Si](C)(C)c5ccc(OC)cc5)[C@H]4C)c4ccccc43)cc2)cc1

>  <measurement label>
composite z-score

>  <result>
0.258

$$$$
>  <compound>
COC(=O)[C@@]1(Cc2ccc(F)cc2)[C@H]2c3cc(C(=O)N(C)C)n(Cc4ccc(S(C)(=O)=O)cc4)c3C[C@H]2CN1C(=O)c1ccccc1

>  <measurement label>
composite z-score

>  <result>
1.79

$$$$
>  <compound>
C=C(CCCC)C(=O)CC[C@@H](OC(=O)c1cccnc1)c1ccc(CO)o1

>  <measurement label>
composite z-score

>  <result>
1.05

$$$$
>  <compound>
CCOC(=O)C[C@H]1[C@H](OC(=O)Cc2ccc3c(c2)OCO3)[C@@H](NC(=O)c2ccc(-c3ccccc3)cc2)c2cc(OCCCO)ccc2N1C(=O)Cc1ccc(OC)cc1

>  <measurement label>
composite z-score

>  <result>
0.337

$$$$
>  <compound>
CC(C)C[C@H]1NC(=O)[C@@]23C(=O)N[C@@H](Cc4ccccc4)C2[C@H](C)[C@@]2(C)O[C@H]2C3/C=C/C/C=C\CNC(=O)[C@H](Cc2ccccc2)NC1=O (stereo partly specified)

>  <measurement label>
composite z-score

>  <result>
1.04

$$$$

Lab note: next compound to report on.
Lookup: Please report the recorded composite z-score for "CC(C)OC(=O)C=C1C[C@@H](c2ccccc2C(F)(F)F)O[C@@H](c2ccccc2C(F)(F)F)O1" .
Found: 0.113
